- study-target: FGFR2 (Homo sapiens)
- Construct: biochemical assays using purified intracellular domains of the respective isoforms; purchased Carna Bioscience 08-134
- Sequence (P21802 399-821 limits assumed): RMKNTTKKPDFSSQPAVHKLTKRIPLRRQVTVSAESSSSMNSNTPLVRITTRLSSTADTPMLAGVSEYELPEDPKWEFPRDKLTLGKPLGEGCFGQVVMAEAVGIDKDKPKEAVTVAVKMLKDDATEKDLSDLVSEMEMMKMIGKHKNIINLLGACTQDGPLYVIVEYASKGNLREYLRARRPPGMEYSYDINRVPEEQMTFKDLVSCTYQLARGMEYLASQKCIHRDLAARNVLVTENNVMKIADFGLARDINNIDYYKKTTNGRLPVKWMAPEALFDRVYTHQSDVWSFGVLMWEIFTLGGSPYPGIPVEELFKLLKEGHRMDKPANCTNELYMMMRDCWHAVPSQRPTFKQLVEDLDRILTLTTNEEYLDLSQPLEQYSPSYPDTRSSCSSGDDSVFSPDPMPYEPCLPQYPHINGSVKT
- experiment-notes: FGFR wild type enzyme assay (HTRF KinEASE-TK)
- Format: biochemical
- setup-conditions: compound table after the examples; ATP 2 uM; read-out: Enz FGFR2
Please use T for IC50 under 2 nM and F for everything else, ties included.

* Cc1c(-c2cc(O[C@H](C)c3ccc(F)cn3)c3c(C#N)cnn3c2)cnn1[C@H]1CC[C@](C)(O)CC1 | T
* C[C@H](Oc1cc(-c2cnn(C3CCNCC3)c2)cn2ncc(C#N)c12)c1ccccn1 | F
* Cc1c(-c2cc(O[C@@H](C)c3ccc(F)cn3)c3c(C#N)cnn3c2)cnn1[C@H]1CC[C@@H](O)CC1 | F
* Cc1c(-c2cc(O[C@H](C)c3ccc(F)cn3)c3c(C#N)cnn3c2)cnn1[C@H]1CCCN(C(CO)CO)C1 | T
* C[C@@H](Oc1cc(-c2cnn([C@H]3CCCNC3)c2N)cn2ncc(C#N)c12)c1ccc(F)cn1 | T
* Cc1c(-c2cc(O[C@H](C)c3ccc(F)cn3)c3c(C#N)cnn3c2)cnn1C | T
* Cc1c(-c2cc(O[C@@H](CO)c3ccc(F)cn3)c3c(C#N)cnn3c2)cnn1[C@H]1CC[C@H](O)CC1 | F

====

- study-target: FGFR2 N549H (Homo sapiens, UniProt P21802, N549H)
- Construct: biochemical assays using purified intracellular domains of the respective isoforms
- Sequence (P21802 399-821 N549H limits assumed): as the sequence (P21802 399-821 limits assumed) above, with N151H counted along it
- experiment-notes: FGFR mutant enzyme assay (HTRF KinEASE-TK)
- setup-conditions: ATP 0.9 uM
The entries below come with measured IC50 values attached.
metric-name: IC50 (nM)

- Cc1c(-c2cc(O[C@H](C)c3ccc(F)cn3)c3c(C#N)cnn3c2)cnn1[C@H]1CCC[C@H](O)C1 [Compound 67]: 0.4
- Cc1c(-c2cc(O[C@H](C)c3ccc(F)cn3)c3c(C#N)cnn3c2)cnn1[C@H]1CCCNC1 [Compound 12]: 0.7
- Cc1c(-c2cc(O[C@H](C)c3ccc(F)cn3)c3c(C#N)cnn3c2)nnn1[C@H]1CC[C@H](O)CC1 [Compound 59]: 1
- Cc1nn(C[C@H](O)CO)cc1-c1cc(O[C@H](C)c2ccc(F)cn2)c2c(C#N)cnn2c1 [Compound 28]: 5
- C[C@@H](Oc1cc(-c2cnn(C)c2N)cn2ncc(C#N)c12)c1ccccn1 [Compound 35]: 1
- Cc1c(-c2cc(O[C@H](C)c3ccc(F)cn3)c3c(C#N)cnn3c2)cnn1[C@H]1CCCN(C(=O)[C@@H](C)O)C1 [Compound 48]: 0.4
- Cc1c(-c2cc(O[C@H](C)c3ccc(F)cn3)c3c(C#N)cnn3c2)cnn1[C@@H]1CCCC[C@H]1O [Compound 62]: 9
- Cc1c(-c2cc(O[C@H](C)c3ccc(F)cn3)c3c(C#N)cnn3c2)cnn1C1CCS(=O)(=O)CC1 [Compound 33]: 0.7
- Cc1c(-c2cc(O[C@H](C)c3ccc(F)cn3)c3c(C#N)cnn3c2)cnn1C [Compound 21]: 3
- Cc1c(-c2cc(O[C@H](C)c3ccc(F)cn3)c3c(C#N)cnn3c2)cnn1[C@@H]1CCCN(C(=O)[C@H](C)O)C1 [Compound 49]: 3
- Cc1c(-c2cc(O[C@H](C)c3ccc(F)cn3)c3c(C#N)cnn3c2)cnn1C1CCN(C(=O)[C@H](C)O)CC1 [Compound 41]: 0.7
- CN=S1(=O)CCC(n2cc(-c3cc(O[C@H](C)c4ccc(F)cn4)c4c(C#N)cnn4c3)cn2)CC1 (stereo partly drawn) [Compound 58]: 0.15
- Cc1c(-c2cc(O[C@H](C)c3ccc(F)cn3)c3c(C#N)cnn3c2)cnn1[C@H]1CC[C@](C)(O)CC1 [Compound 22]: 0.4
- Cc1c(-c2cc(O[C@H](CO)c3ccc(F)cn3)c3c(C#N)cnn3c2)cnn1[C@H]1CC[C@H](O)CC1 [Compound 65]: 3.5
- C[C@@H](Oc1cc(-c2cnn(CCO)c2N)cn2ncc(C#N)c12)c1ccc(F)cn1 [Compound 31]: 2
